tgt: T1, Rhesus D antigen (human, UniProt Q02161 2-417)
T1 construct: whole, on cells; Presented on RhD(+) erythrocytes; also called RhD; RhD antigen
T1 sequence (looked up): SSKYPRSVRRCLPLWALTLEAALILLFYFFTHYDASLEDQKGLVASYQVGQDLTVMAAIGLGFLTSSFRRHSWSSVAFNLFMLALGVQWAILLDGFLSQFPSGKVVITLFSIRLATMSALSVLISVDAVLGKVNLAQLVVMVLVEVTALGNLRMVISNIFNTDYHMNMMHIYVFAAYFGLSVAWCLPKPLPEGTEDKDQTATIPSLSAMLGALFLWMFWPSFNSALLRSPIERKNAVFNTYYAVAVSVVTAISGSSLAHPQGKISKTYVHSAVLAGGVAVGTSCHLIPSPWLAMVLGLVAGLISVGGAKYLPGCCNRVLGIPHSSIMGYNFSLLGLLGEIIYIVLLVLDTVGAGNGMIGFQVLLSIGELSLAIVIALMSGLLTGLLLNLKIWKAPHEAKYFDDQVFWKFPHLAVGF
procedure-summary: agglutination assay, Fab periplasmic extract on RhD(+)/RhD(-) RBC mix

>  <binder>
RhD241.119B05 (Fab, V domains shown, Tested as Fab in E. coli periplasmic extract (VH on human gamma 1 CH1, vector Em351)) VH: QVQLQESGPGLVKPSETLSLICTVSGGSISSNYWSWIRQPPGKGLEWIGYIYYSGNTNYNPSLKSRVTISLDTSKNQFSLKLRSVTAADTAVYYCAREWRQYGSGIRGSRYYYGMDVWGQGTLVTVSS VL: EIVLTQSPVTLSLSPGERATLSCRASQSVSSGYLAWYQQKPGQAPRLLIYGTSIRATGIPDRFSGSGSGTDFTLTISRLEPEDFAVYYCQQYGSSPLYSFGQGTKVDIKR

>  <binding result>
binds

$$$$
>  <binder>
RhD208.179B11 (Fab, V domains shown, Tested as Fab in E. coli periplasmic extract (VH on human gamma 1 CH1, vector Em351)) VH: EVQLVESGGGVVQPGRSLRLSCAASGFTFRTSAMHWVRQAPGKGLEWVAVIWYDGSNKYYADSVKGRFTISRDNSKNTLYLQMNSLRAEDTAVYYCAREMVSYSSSWYRRYYYYNMDVWGKGTTVTVSS VL: QAVVTQEPSLTVSPGGTVTLTCASSTGSVTSGYYPNWFQQKPGQAPRPLISGTSNKLSWTPARFSGSLLGGKAALTVSGVQPEDEAVYYCLLYYGVPQPVVFGGGTKLTVLG

>  <binding result>
binds

$$$$
>  <binder>
RhD239.126F09 (Fab, V domains shown, Tested as Fab in E. coli periplasmic extract (VH on human gamma 1 CH1, vector Em351)) VH: QVQLVESGGGVVQPGTSLRLSCAASGFTFRTYGMHWVRQAPGKGLEWVAYIWYDGSNKYYADSVKGRFTISRDNSKSTLNLQMNSLRAEDTAVYYCAREIASRGYSRYLYYFDSWGQGTLVTVSS VL: DIQLTQSPSSLSASVGDRVTITCRASQSISSYLNWYQQKPGKAPKLLISAASSLQSGVPSRFSGSGSGTDFTLTISSLQREDYATYYCQQSYSTPPYTFGQGTKLEIKR

>  <binding result>
binds

$$$$
